These data points were gathered from patent US6727278B1.

test system: human DMS; assay: In vivo assay: amyloid formation induced by intracerebral injection of human DMS with the compound, Congo Red histology; set-up: species or system Male Wistar rats; conditions: 10^−5 − 10^−6M; CBADs = Congophilic Birefringent Amyloid Deposits
In this section we review reported Mean Number of CBADs Per Animal values for a set of compounds.
Endpoint: Mean Number of CBADs Per Animal

| Compound | Endpoint | Endpoint Result |
| --- | --- | --- |
| O=C([O-])c1cc(=O)c2c(OCC(O)COc3cccc4oc(C(=O)[O-])cc(=O)c34)cccc2o1.[Na+].[Na+] [Intal, Cromolyn Sodium] | Mean Number of CBADs Per Animal | 2 |
| OCCN(CCO)c1nc(N2CCCCC2)c2nc(N(CCO)CCO)nc(N3CCCCC3)c2n1 [Persantine] | Mean Number of CBADs Per Animal | 146 |
| CC[C@H]1OC(=O)[C@H](C)[C@@H](O[C@H]2C[C@@](C)(OC)[C@@H](O)[C@H](C)O2)[C@H](C)[C@@H](O[C@@H]2O[C@H](C)C[C@H](N(C)C)[C@H]2O)[C@](C)(O)C[C@@H](C)C(=O)[C@H](C)[C@@H](O)[C@]1(C)O | Mean Number of CBADs Per Animal | 2 |
| Cc1noc(NS(=O)(=O)c2ccc(N)cc2)c1C | Mean Number of CBADs Per Animal | 108 |
| CCc1nc(N)nc(N)c1-c1ccc(Cl)cc1 | Mean Number of CBADs Per Animal | 4 |
